- Assay system: B1R receptor of the rat (CHO K1 cells stably transfected with the B1R gene of the rat) (Rattus norvegicus, UniProt P97583)
- Construct: expressed in transfected cells; host or cells: CHO K1 cells (Chinese hamster ovary), stably transfected
- Sequence (P97583 whole entry): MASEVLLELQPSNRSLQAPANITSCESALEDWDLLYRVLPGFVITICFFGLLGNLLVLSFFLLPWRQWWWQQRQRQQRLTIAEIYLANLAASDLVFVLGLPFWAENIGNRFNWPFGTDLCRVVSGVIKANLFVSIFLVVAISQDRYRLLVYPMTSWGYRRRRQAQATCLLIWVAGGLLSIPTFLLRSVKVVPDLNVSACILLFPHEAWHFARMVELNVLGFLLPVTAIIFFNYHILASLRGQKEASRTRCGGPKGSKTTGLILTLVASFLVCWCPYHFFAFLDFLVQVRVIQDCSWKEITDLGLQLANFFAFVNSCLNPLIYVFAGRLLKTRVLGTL
- Procedure details: Functional study on the bradykinin receptor 1 (B1R), Ca2+ fluorescence (Fluo-4) FLIPR/Novostar assay, rB1R cells
- Assay type: cell-based
- Condition parameters: CHO-K1, 10 μM, read-out: % Inhibition (r-B1R) at 10 μM
Everything with inhibition at 10 µM lower than 90% is 0 (no); everything else, including exactly 90%, is 1 (yes).

compound="CN(C(=O)c1ccc2c(c1)C(NC(=O)c1c(Cl)cccc1C(F)(F)F)CC2(C)C)C1CCN(c2ccncc2)CC1 (centres unmarked)" category_label="1 (yes)"
compound="Cc1cc(N2CCC(N(C)C(=O)c3ccc4c(c3)C(N(C)C(=O)Nc3ccc(F)c(Cl)c3)CC4)CC2)cc(C)n1 (centres unmarked)" category_label="0 (no)"
compound="CN(C(=O)c1ccc2c(c1)C(NC(=O)Nc1ccccc1Cl)CCC2)C1CCN(c2ccncc2)CC1 (centres unmarked)" category_label="1 (yes)"
compound="CN(C(=O)c1ccc2c(c1)C(NC(=O)C1CCCCC1)CC2(C)C)C1CCN(c2ccncc2)CC1 (centres unmarked)" category_label="1 (yes)"
compound="CN(C(=O)c1ccc2c(c1)C(NC(=O)c1ccccc1Cl)CCO2)C1CCN(c2ccncc2)CC1 (centres unmarked)" category_label="1 (yes)"
compound="CN(C(=O)c1ccc2c(c1)C(NC(=O)Nc1cc(Cl)ccc1Cl)CCC2)C1CCN(c2ccncc2)CC1 (centres unmarked)" category_label="1 (yes)"
